Test system: generalized trembling caused by dl-5-hydroxytryptophane
Test: Test A: potentiation in mice of generalized trembling caused by dl-5-hydroxytryptophane
Format: in vivo
Details: Mus musculus, po, mice, potentiation of trembling by dl-5-hydroxytryptophane 200 mg/kg interperitoneal, read-out: Test A ED 50
Kindly note that classification relies on ED50 with these boundaries: bin A = under 2 mg/kg, bin B = from 2 mg/kg up to 5 mg/kg, bin C = 5 mg/kg and over

Previously resolved entries follow.
- COMPOUND: "COC[C@@H]1CN(c2ccc(OCc3cccc(C#N)c3)cc2)C(=O)O1"
  DISCRETE_LABEL: "bin A"
- COMPOUND: "CCCCCCCCC(=O)OCC1CN(c2ccc(OCc3cccc([N+](=O)[O-])c3)cc2)C(=O)O1 (stereo not shown)"
  DISCRETE_LABEL: "bin A"
- COMPOUND: "CCCCCCCCC(=O)OCC1CN(c2ccc(OCc3ccccc3)cc2)C(=O)O1 (stereo not shown)"
  DISCRETE_LABEL: "bin C"
- COMPOUND: "CCOCC1CN(c2ccc(OCCC#N)cc2)C(=O)O1 (stereo not shown)"
  DISCRETE_LABEL: "bin A"
- COMPOUND: "CC(=O)OCC1CN(c2ccc(OCc3cccc([N+](=O)[O-])c3)cc2)C(=O)O1 (stereo not shown)"
  DISCRETE_LABEL: "bin A"
- COMPOUND: "CC(=O)OCC1CN(c2ccc(OCc3cccc(Cl)c3)cc2)C(=O)O1 (stereo not shown)"
  DISCRETE_LABEL: "bin B"

Into which bin does this compound go? COCC1CN(c2ccc(OCc3cccc([N+](=O)[O-])c3)cc2)C(=S)O1 (stereo not shown)
bin A

Into which bin does this compound go? N#Cc1cccc(COc2ccc(N3CC(CN)OC3=O)cc2)c1 (stereo not shown)
bin C

Into which bin does this compound go? COCC1CN(c2ccc(OCC3(C)CCCC3)cc2)C(=O)O1 (stereo not shown)
bin B

From: patent US4348393A
